Tested on: Epidermal growth factor receptor (Homo sapiens), P00533 [L858R]
Sequence (P00533 whole entry L858R): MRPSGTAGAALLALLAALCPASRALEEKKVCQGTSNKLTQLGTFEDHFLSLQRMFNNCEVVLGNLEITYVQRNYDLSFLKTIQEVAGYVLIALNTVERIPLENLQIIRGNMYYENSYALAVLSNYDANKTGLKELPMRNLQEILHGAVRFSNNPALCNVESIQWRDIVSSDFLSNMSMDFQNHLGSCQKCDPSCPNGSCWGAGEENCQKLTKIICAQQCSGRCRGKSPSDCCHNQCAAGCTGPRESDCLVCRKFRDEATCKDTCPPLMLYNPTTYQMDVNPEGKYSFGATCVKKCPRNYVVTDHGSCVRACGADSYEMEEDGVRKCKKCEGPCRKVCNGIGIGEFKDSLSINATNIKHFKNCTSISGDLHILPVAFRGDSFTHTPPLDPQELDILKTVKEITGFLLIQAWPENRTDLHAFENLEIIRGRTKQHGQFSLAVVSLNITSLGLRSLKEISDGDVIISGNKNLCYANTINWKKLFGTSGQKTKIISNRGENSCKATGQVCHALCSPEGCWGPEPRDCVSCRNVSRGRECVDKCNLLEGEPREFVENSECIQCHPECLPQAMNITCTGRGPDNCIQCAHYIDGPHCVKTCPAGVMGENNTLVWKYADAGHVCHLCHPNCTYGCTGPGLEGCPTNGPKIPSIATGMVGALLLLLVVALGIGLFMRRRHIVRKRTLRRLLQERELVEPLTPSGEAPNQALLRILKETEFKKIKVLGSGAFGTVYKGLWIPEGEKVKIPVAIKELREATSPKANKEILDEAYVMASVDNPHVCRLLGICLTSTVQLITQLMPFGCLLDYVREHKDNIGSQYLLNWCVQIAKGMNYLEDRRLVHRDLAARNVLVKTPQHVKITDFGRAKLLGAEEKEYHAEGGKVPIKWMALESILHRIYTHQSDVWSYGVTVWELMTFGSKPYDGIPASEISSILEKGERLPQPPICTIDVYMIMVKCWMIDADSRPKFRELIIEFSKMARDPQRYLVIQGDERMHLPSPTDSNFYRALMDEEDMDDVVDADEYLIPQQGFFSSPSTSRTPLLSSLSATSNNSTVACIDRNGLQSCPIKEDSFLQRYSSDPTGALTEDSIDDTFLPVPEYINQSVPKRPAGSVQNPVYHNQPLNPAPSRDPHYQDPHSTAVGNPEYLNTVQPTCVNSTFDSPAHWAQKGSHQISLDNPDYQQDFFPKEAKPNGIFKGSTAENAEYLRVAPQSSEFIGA
assay-setup: at 1 µM
Reported inhibition values are given for each entry in this list.
Number first, unit second: that is the form wanted.

For orientation, consider the following solved cases.
{"structure-smiles-string": "COC(=O)Nc1nc2cc(Oc3ccc(NC(=O)Nc4cccc(Br)c4)cc3)ccc2[nH]1", "inhibition": "5.33%"}
{"structure-smiles-string": "Cc1ccc(O)cc1Nc1ccnc2ccc(S(C)(=O)=O)cc12", "inhibition": "72.1%"}
{"structure-smiles-string": "CS(=O)(=O)CCNCc1nc(-c2ccc3ncnc(Nc4ccc(OCc5cccc(C(F)(F)F)c5)cc4)c3c2)cs1", "inhibition": "43.9%"}
{"structure-smiles-string": "CCOc1nccc2c1nc(-c1nonc1N)n2CC", "inhibition": "7.51%"}

Next:
Requested read-out inhibition, target or system Epidermal growth factor receptor (Homo sapiens), P00533 [L858R], entry CN(C)CCCn1c(-c2nonc2N)nc2cnccc21
0.96%

* * *

We begin with a simple list: items and their reported inhibition.
System: Mast/stem cell growth factor receptor Kit (Homo sapiens), P10721 [T670I]
Sequence (P10721 whole entry T670I): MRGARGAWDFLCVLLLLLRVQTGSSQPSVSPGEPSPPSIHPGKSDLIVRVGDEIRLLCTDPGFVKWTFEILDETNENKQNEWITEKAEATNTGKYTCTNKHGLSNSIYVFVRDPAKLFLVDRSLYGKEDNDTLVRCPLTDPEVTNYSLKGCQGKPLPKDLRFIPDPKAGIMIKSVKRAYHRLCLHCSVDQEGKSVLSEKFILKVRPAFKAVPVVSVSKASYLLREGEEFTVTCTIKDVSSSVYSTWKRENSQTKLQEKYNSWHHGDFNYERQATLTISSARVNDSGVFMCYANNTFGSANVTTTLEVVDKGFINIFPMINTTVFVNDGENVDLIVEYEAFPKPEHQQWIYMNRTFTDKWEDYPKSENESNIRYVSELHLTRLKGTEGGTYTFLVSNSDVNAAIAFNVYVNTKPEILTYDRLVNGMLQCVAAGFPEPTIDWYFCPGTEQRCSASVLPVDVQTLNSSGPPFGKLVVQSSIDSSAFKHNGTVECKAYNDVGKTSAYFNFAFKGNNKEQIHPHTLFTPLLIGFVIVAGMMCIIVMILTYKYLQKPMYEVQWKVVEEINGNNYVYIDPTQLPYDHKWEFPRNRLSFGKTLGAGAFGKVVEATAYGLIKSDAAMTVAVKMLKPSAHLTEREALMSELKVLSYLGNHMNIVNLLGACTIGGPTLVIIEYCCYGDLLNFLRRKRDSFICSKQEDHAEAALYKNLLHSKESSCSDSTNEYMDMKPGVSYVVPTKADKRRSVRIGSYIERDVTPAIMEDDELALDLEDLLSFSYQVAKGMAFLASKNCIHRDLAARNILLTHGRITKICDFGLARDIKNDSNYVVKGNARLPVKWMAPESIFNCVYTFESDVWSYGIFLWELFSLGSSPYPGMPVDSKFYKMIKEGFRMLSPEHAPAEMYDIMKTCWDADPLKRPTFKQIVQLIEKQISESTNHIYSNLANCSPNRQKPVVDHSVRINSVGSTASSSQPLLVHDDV
assay-setup: at 1 µM
Give the value, in units of %, as a plain number.

{"structure-smiles-string": "CN(c1ccc(NC(=O)Nc2ccc(OC(F)(F)F)cc2)cc1)c1ccnc(Nc2cccc(S(N)(=O)=O)c2)n1", "unit-name": "%", "inhibition": 89.9}
{"structure-smiles-string": "CCn1c(-c2nonc2N)nc2ccc(F)cc21", "unit-name": "%", "inhibition": 6.26}
{"structure-smiles-string": "Cc1ccc2c(c1)/C(=N/Nc1ccc(S(N)(=O)=O)cc1)C(=O)N2", "unit-name": "%", "inhibition": 54.4}

What measured inhibition goes with Nc1nccc(C#Cc2cncnc2Nc2ccc(OCc3cccc(F)c3)c(Cl)c2)n1 ?
1.54

Proceed to COC(=O)c1ccc2c(c1)C(=Cc1cc(Br)c(O)c(Br)c1)C(=O)N2
2.74

Also COc1cccc(-n2nc(C)c3c(N/N=C(\C)c4ccncc4)ncnc32)c1 ?
0.13

* * *

Measured inhibition, listed per entry.
system-tested: Tyrosine-protein kinase Mer (Homo sapiens);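 further: values are mean inhibition of human MER kinase, from the GSK PKIS profiling panel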
assay-setup: at 1 µM
Report the figure in % without appending any unit label.

{"structure-smiles-string": "COc1cccc(-n2nc(C)c3c(N/N=C(\\C)c4ccncc4)ncnc32)c1", "unit-name": "%", "inhibition": -0.09}
{"structure-smiles-string": "Cc1cc(-c2ccccn2)cc(C)c1/C=C/c1cncc(-c2nn[nH]n2)c1", "unit-name": "%", "inhibition": 3.73}
{"structure-smiles-string": "CCS(=O)(=O)c1ccc(OC)c(Nc2ncc(-c3cccc(OC)c3)o2)c1", "unit-name": "%", "inhibition": 7.73}
{"structure-smiles-string": "Cc1ccc(O)cc1Nc1ccnc2ccc(S(C)(=O)=O)cc12", "unit-name": "%", "inhibition": 4.83}
{"structure-smiles-string": "CCn1c(-c2nonc2N)nc2c(C#CC(C)(C)O)nc(OCCNC)cc21", "unit-name": "%", "inhibition": 2.24}

Here is another compound to look at.
Report inhibition for CN(C)C(=O)O[C@@H]1CN[C@@H](C#Cc2cc3ncnc(Nc4ccc(OCc5cccc(F)c5)c(Cl)c4)c3s2)C1 please.
2.89

* * *

system-tested: Calcium/calmodulin-dependent protein kinase type II subunit delta (Homo sapiens) (UniProt Q13557);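 further: mean percent inhibition of CAMK2D, from screening of the GSK Published Kinase Inhibitor Set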
Sequence (Q13557 whole entry): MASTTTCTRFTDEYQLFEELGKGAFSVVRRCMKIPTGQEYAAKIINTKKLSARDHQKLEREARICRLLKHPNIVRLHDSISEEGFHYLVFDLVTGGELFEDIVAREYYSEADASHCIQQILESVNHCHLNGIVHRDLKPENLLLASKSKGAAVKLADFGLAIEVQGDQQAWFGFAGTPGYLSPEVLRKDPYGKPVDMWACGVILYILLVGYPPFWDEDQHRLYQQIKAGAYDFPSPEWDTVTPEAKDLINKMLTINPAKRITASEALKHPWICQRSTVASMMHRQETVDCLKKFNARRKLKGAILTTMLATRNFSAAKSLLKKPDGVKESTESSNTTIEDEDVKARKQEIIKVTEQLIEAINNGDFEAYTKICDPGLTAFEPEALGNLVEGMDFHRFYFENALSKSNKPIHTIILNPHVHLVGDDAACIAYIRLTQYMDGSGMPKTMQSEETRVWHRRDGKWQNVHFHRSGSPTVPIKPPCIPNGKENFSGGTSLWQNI
assay-setup: at 1 µM
value-type: inhibition (%)
Use % as the unit, but write only the number.

{"compound": "FC(F)(F)c1ccc(-c2nn3ncccc3c2-c2ccnc(Nc3ccc4c(c3)OCCO4)n2)cc1", "unit-name": "%", "test-result": -2.99}
{"compound": "NS(=O)(=O)c1ccc(-c2cc3ccncc3cc2OCc2ccccc2)cc1", "unit-name": "%", "test-result": 4.59}
{"compound": "Cc1ccc(Nc2ccnc(Nc3cccc(C(N)=O)c3)n2)cc1O", "unit-name": "%", "test-result": 5.54}
{"compound": "COc1cccc(-n2ncc3c(N/N=C/c4ccc(S(C)(=O)=O)cc4)ncnc32)c1", "unit-name": "%", "test-result": 4.11}
{"compound": "Nc1nccc(-c2c(-c3ccc(F)cc3)nn3cc(C(F)(F)F)ccc23)n1", "unit-name": "%", "test-result": -0.48}
{"compound": "CCS(=O)(=O)c1ccc(OC)c(Nc2ncc(-c3cccc(OC)c3)o2)c1", "unit-name": "%", "test-result": 9.35}
{"compound": "NC(=O)c1sc(-n2cnc3ccccc32)cc1OCc1ccccc1Br", "unit-name": "%", "test-result": 7.99}
{"compound": "COc1cc(/C=N/Nc2ncnc3c2cnn3C(C)C)ccc1O", "unit-name": "%", "test-result": 3.93}

Give the measured inhibition of Cc1ccc(C(=O)NC2CC2)cc1-c1ccc2[nH]ncc2c1 .
1.9

What would you report for CN(C)c1cc2c(Nc3ccc4c(cnn4Cc4ccccc4)c3)ncnc2cn1 ?
2.7

Input COc1cc2ncnc(Nc3ccc(C)c(O)c3)c2cc1OC
3.68

Try this compound next: NC(=O)c1cccc(Nc2nccc(Nc3cccc(F)c3)n2)c1
2.08

# repeat for COC(=O)c1cncc(/C=C/c2c(C)cc(O)cc2C)c1
3

What do you get for COc1cc2ncnc(Nc3ccc4c(cnn4Cc4ccccc4)c3)c2cc1OC ?
4.24

Cited source: ChEMBL document CHEMBL1961873
